Test system: MOLM-13 cells
method.description: MOLM-13 48 Hour cell proliferation assay (Cell Titer-Glo)
Format: cell-based
condition.parameters: Homo sapiens
Method: MOLM-13 48 Hour Cell Proliferation Assay MOLM-13 (DSMZ) cells were seeded at 1000 cells per well in a volume of 44 μL in a Falcon 384-well tissue culture treated clear bottom microplate in RPMI 1640 media containing 10% fetal bovine serum using a Multidrop Combi (ThermoFisher Scientific). […] The plate was read on an EnVision plate reader (Perkin Elmer) using the Ultra Sensitive Luminescence protocol. […] An IC50 was calculated using a 4-parameter logistic nonlinear regression model in GraphPad Prism.
pIC50: −log10 of the molar value.
Field: pIC50. Provide a value for each of the compounds that follow.

Prompt line: Reported pIC50, compound CNc1ccc2ccc(OCc3cc(CO)cc(-n4ccc5c(N)ncnc54)c3)cc2n1 [Compound I-6] : ____
Response line: ≤ 5.00

Prompt line: Now consider CNc1ccc2ccc(OCc3cc(CO)cc(-n4cc(Cl)c5c(N)ncnc54)c3)cc2n1 [Compound I-34] .
Response line: > 6.00

Prompt line: Now consider CNc1ccc2ccc(OCc3cncc(-c4c[nH]c5c(N)ncnc45)c3)cc2n1 [Compound I-47] .
Response line: ≤ 5.00

Prompt line: Now consider CNc1ccc2ccc(OCc3cccc(-n4cc(Cl)c5c(N)ncnc54)c3)cc2n1 [Compound I-87] .
Response line: 5.00 to 6.00

Prompt line: Now consider CNc1ccc2ccc(OCc3cncc(-c4cn(C5CCCC5)c5c(N)ncnc45)c3)cc2n1 [Compound I-18] .
Response line: 5.00 to 6.00

Prompt line: Now consider CNc1ccc2ccc(OCc3cncc(-c4c(C)[nH]c5c(N)ncnc45)c3)cc2n1 [Compound I-25] .
Response line: ≤ 5.00

Prompt line: Now consider CNc1ccc2ccc(OCc3cncc(-n4ccc5c(N)ncnc54)c3)cc2n1 [Compound I-60] .
Response line: > 6.00

Prompt line: Now consider Cc1cc(NCCN(C)C)c2ccc(OCc3cncc(-n4cc(Cl)c5c(N)ncnc54)c3)cc2n1 [Compound I-42] .
Response line: > 6.00

Prompt line: Now consider CCc1cc(N)c2ccc(OCc3cncc(-n4cc(C5CCCC5)c5c(N)ncnc54)c3)cc2n1 [Compound I-11] .
Response line: > 6.00

Prompt line: Now consider CNc1ccc2ccc(OCc3cncc(-n4cc(C)c5c(N)ncnc54)c3)cc2n1 [Compound I-17] .
Response line: > 6.00

###

target.system: METTL3/METTL14 (Homo sapiens)
Sequence (Q86U44 whole entry, species assumed): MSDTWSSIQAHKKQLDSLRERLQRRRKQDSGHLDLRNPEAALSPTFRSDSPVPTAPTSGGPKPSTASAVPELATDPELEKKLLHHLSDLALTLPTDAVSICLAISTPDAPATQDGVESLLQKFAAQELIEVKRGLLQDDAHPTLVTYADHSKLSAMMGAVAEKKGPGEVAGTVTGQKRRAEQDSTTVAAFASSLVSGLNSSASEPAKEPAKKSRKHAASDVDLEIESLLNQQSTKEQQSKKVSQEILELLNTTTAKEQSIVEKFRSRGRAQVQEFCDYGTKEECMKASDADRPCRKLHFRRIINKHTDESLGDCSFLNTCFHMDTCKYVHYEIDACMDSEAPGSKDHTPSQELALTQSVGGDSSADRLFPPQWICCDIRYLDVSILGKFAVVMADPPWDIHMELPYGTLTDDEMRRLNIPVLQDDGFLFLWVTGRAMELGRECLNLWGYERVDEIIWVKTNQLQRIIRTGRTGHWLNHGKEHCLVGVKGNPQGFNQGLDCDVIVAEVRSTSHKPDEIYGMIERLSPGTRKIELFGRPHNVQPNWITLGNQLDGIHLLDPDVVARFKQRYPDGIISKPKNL
Sequence (Q9HCE5 whole entry partner, species assumed): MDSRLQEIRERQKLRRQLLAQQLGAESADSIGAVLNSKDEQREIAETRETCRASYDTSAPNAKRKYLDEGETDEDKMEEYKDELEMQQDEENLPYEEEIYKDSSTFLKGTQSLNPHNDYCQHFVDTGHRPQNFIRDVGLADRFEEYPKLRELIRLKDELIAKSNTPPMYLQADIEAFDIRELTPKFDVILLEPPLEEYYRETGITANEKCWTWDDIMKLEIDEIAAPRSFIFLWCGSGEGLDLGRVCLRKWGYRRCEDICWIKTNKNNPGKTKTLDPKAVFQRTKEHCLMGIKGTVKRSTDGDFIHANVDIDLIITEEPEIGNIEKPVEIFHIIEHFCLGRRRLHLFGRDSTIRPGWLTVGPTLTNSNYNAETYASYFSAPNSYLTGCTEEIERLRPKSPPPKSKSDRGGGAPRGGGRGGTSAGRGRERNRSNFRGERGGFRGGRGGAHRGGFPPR
method.description: METTL3-14 standard enzyme assay (3H-SAM flashplate scintillation)
condition.parameters: METTL3/METTL14 2.5 nM, RNA 100 nM, 3H-SAM 100 nM, 30 min
pIC50: −log10 of the molar value.
observed.property: pIC50

Prompt line: Reported pIC50, compound CCc1cc(N2CCC2)nc2cc(OCc3cncc(-n4cc(C5CCCO5)c5c(N)ncnc54)c3)cc(F)c12 (stereo not shown) : ____
Response line: < 6.00

Prompt line: Now consider CC(C)c1cc(N2CCNCC2)c2ccc(OCc3cncc(-n4ccc5c(N)ncnc54)c3)cc2n1 .
Response line: > 8.00

Prompt line: Now consider CCNc1ccc2ccc(OCc3cncc(-n4cc([C@@H]5CCCO5)c5c(N)ncnc54)c3)cc2n1 .
Response line: > 8.00

Prompt line: Now consider Nc1ncnc2c1c(Cl)cn2-c1cncc(COc2ccc3ccc(NCC4CC4)nc3c2)c1 .
Response line: 6.00 to 7.00

Prompt line: Now consider CNc1ccc2ccc(OCc3cc(-n4cc(Cl)c5c(N)ncnc54)cnc3NC)cc2n1 .
Response line: 7.00 to 8.00

Prompt line: Now consider Cn1ccc(-c2cn(-c3cncc(CSc4ccc5ccc(N6CCC6)nc5c4)c3)c3ncnc(N)c23)n1 .
Response line: > 8.00

Prompt line: Now consider CNc1ccc2ccc(OCc3cc(CO)cc(-n4ccc5c(N)ncnc54)c3)cc2n1 .
Response line: > 8.00

###

target.system: PRMT5-MEP50 (Homo sapiens)
Sequence (O14744 whole entry): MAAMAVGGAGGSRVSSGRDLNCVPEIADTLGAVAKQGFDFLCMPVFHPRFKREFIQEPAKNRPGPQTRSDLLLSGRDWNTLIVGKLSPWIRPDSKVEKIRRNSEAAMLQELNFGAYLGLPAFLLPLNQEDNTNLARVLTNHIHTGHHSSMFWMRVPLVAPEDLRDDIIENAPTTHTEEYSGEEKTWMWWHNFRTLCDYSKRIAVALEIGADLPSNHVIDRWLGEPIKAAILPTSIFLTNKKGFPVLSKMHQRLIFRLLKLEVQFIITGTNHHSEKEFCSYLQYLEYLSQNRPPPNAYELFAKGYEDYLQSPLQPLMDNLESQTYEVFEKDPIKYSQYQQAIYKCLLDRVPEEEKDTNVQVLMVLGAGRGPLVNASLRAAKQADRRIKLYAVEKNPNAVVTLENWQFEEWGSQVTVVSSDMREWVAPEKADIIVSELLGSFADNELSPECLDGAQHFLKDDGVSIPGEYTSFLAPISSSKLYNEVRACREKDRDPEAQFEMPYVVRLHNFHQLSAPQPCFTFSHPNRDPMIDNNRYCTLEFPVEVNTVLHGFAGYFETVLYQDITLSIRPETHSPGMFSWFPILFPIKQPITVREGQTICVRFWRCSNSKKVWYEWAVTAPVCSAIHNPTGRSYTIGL
Sequence (Q9BQA1 whole entry partner): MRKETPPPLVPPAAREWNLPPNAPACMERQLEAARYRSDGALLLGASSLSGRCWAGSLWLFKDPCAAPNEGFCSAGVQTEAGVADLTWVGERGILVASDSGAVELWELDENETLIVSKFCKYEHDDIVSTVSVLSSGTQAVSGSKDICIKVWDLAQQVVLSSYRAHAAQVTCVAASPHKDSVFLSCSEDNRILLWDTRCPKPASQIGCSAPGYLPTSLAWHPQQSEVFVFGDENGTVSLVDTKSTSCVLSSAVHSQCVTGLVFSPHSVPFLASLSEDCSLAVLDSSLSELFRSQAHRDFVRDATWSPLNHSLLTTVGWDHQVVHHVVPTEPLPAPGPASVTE
pIC50: −log10 of the molar value.
observed.property: pIC50

Prompt line: Reported pIC50, compound CNc1ccc2ccc(OCc3cccc(-n4cc(C5CCCC5)c5c(N)ncnc54)c3)cc2n1 [Compound I-86] : ____
Response line: < 6.00

Prompt line: Now consider Nc1ncnc2c1c(C1CCCO1)cn2-c1cncc(COc2cnc3ccc(N4CCC4)nc3c2)c1 (centres unmarked) [Compound I-207] .
Response line: < 6.00

Prompt line: Now consider CNc1ccc2ccc(OCc3cncc(-c4cn(C5CCCC5)c5c(N)ncnc45)c3)cc2n1 [Compound I-18] .
Response line: < 6.00

Prompt line: Now consider CCc1cc(N)c2ccc(OCc3cncc(-n4cc(Cl)c5c(N)ncnc54)c3)cc2n1 [Compound I-52] .
Response line: < 6.00

Prompt line: Now consider CNc1ccc2ccc(OCc3cc(-n4cc(Cl)c5c(N)ncnc54)ncn3)cc2n1 [Compound I-64] .
Response line: < 6.00

Prompt line: Now consider Cn1ccc(-c2cn(-c3cncc(COc4ccc(C(=O)N5CCC(F)(F)CC5)c(N)c4)c3)c3ncnc(N)c23)n1 [Compound I-186] .
Response line: < 6.00

Prompt line: Now consider CNc1ccc2ccc(OCc3nc(-n4ccc5c(N)ncnc54)cs3)cc2n1 [Compound I-19] .
Response line: < 6.00

Prompt line: Now consider CNc1ccc2ccc(OCc3cncc(-n4cc(C5CCCO5)c5c(N)ncnc54)c3)cc2n1 (centres unmarked) [Compound I-97] .
Response line: < 6.00

###

target.system: METTL1/WDR4 (Homo sapiens)
Sequence (Q9UBP6 whole entry, species assumed): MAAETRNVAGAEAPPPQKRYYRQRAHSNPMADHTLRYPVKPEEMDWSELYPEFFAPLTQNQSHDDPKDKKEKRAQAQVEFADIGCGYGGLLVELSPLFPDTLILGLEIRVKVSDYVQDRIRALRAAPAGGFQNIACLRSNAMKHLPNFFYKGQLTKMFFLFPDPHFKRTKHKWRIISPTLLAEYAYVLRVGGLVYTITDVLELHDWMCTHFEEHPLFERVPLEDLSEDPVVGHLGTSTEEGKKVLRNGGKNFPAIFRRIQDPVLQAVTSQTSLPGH
Sequence (P57081 whole entry partner, species assumed): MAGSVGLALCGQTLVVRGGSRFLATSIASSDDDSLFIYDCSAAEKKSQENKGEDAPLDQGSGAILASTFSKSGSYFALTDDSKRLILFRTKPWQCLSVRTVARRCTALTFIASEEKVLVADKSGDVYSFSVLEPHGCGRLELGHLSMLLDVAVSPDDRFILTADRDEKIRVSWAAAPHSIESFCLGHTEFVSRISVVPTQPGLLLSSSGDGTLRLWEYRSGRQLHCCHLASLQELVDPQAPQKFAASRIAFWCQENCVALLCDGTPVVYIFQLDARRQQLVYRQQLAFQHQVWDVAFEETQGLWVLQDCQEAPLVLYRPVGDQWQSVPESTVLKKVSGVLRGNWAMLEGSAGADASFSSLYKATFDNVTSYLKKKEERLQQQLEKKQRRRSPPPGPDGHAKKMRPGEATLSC
method.description: METTL1 assay (3H-SAM flashplate scintillation)
Format: biochemical
Counter-ions that a name gives are not always drawn.
Field: IC50. Provide a value for each of the compounds that follow.

Prompt line: Reported IC50, compound CNc1ccc2ccc(OCc3cncc(-n4cc(C5CCCO5)c5c(N)ncnc54)c3)cc2n1 (stereo not shown) : ____
Response line: > 1 µM

Prompt line: Now consider CCc1cc(N(C)CCOC)c2ccc(CCc3cncc(-n4cc(-c5ccn(C)n5)c5c(N)ncnc54)c3)cc2n1 .
Response line: > 1 µM

Prompt line: Now consider CNc1ccc2ccc(OCc3cncc(-n4cc([C@@H]5CCCO5)c5c(N)ncnc54)c3)cc2n1 .
Response line: > 1 µM

Prompt line: Now consider Nc1ncnc2c1c(Cl)cn2-c1csc(COc2ccc3ccc(N4CCCC4)nc3c2)n1 [Compound I-23, hydrochloride] .
Response line: > 1 µM

Prompt line: Now consider CNc1ccc2ccc(OCc3nc(-n4ccc5c(N)ncnc54)cs3)cc2n1 .
Response line: > 1 µM

Prompt line: Now consider Nc1ncnc2c1c(Cl)cn2-c1nnc(COc2ccc3ccc(N4CCCC4)nc3c2)s1 [Compound I-38, trifluoroacetate] .
Response line: > 1 µM

Prompt line: Now consider CNc1ccc2ccc(OCc3cc(-n4ccc5c(N)ncnc54)n[nH]3)cc2n1 .
Response line: > 1 µM

###

Field: pIC50. Provide a value for each of the compounds that follow.
target.system: METTL3/METTL14 (Homo sapiens)
method.description: METTL3-14 standard enzyme assay (3H-SAM flashplate scintillation)
Format: biochemical
condition.parameters: METTL3/METTL14 2.5 nM, RNA 100 nM, 3H-SAM 100 nM, 30 min
pIC50: −log10 of the molar value. Structures can show the parent of a compound that is named as a salt.

Prompt line: Provide the documented pIC50 with METTL3/METTL14 (Homo sapiens) as the system for CC(C)c1cc(N)c2ccc(OCc3cncc(-n4ccc5c(N)ncnc54)c3)cc2n1 [Compound I-12]
Response line: > 8.00

Prompt line: Now consider CCc1cc(NCCOC)c2ncc(CCc3cncc(-n4cc(-c5ccn(C)n5)c5c(N)ncnc54)c3)cc2n1 [Compound I-132] .
Response line: > 8.00

Prompt line: Now consider CCc1cc(N2CCC(F)(F)CC2)c2ccc(OCc3cncc(-n4ccc5c(N)ncnc54)c3)cc2n1 [Compound I-118] .
Response line: > 8.00

Prompt line: Now consider Cn1ccc(-c2cn(-c3cncc(COc4cc(F)ccc4C(=O)NC4CCOCC4)c3)c3ncnc(N)c23)n1 [Compound I-181] .
Response line: < 6.00

Prompt line: Now consider Cn1ccc(-c2cn(-c3cncc(COC(=O)Nc4cccc(N5CCC5)n4)c3)c3ncnc(N)c23)n1 [Compound I-224] .
Response line: < 6.00

Prompt line: Now consider Nc1ncnc2c1c([C@H]1CCCO1)cn2-c1cncc(COc2ccc3ccc(N4CCC4)nc3c2)n1 [Compound I-160] .
Response line: 7.00 to 8.00

Prompt line: Now consider Nc1ncnc2c1c([C@H]1CCCO1)cn2-c1cncc(COc2ccc3ccc(N4CCC4)nc3c2)c1 [Compound I-144] .
Response line: > 8.00

Prompt line: Now consider CCNc1ccc2ccc(OCc3cncc(-n4cc(-c5ccn(C)n5)c5c(N)ncnc54)c3)cc2n1 [Compound I-128] .
Response line: > 8.00

Prompt line: Now consider COCCN(C)C(=O)c1ccc(OCc2cncc(-n3cc(-c4ccn(C)n4)c4c(N)ncnc43)c2)cc1N [Compound I-191] .
Response line: < 6.00

Prompt line: Now consider CN(CC1CC1)C(=O)c1ccc(OCc2cncc(-n3cc(-c4ccn(C)n4)c4c(N)ncnc43)c2)cc1N [Compound I-179] .
Response line: < 6.00

Prompt line: Now consider CN1CCN(c2ccc3ccc(OCc4cncc(-n5cc(-c6ccn(C)n6)c6c(N)ncnc65)c4)cc3n2)CC1 [Compound I-204] .
Response line: 6.00 to 7.00

Prompt line: Now consider CNc1ccc2ccc(CCc3cncc(-n4ccc5c(N)ncnc54)c3)cc2n1 [Compound I-30] .
Response line: 7.00 to 8.00

Prompt line: Now consider Nc1ncnc2c1c(Cl)cn2-c1nnc(COc2ccc3ccc(N4CCCC4)nc3c2)s1 [Compound I-38, trifluoroacetate] .
Response line: < 6.00

Prompt line: Now consider CNc1ccc2ccc(OCc3cc(-n4cc(Cl)c5c(N)ncnc54)ccc3OC)cc2n1 [Compound I-83] .
Response line: < 6.00

Prompt line: Now consider CNc1ccc2ccc(OCc3cncc(-c4cn(C5CCCC5)c5c(N)ncnc45)c3)cc2n1 [Compound I-18] .
Response line: > 8.00

The reported numbers originate from patent US20220372040A1.
